# Lookup of reported binding signal keyed by entry
Target: GST-Aq-NF-kB (Amphimedon queenslandica, UniProt A9Y5G7 2-389)
Sequence: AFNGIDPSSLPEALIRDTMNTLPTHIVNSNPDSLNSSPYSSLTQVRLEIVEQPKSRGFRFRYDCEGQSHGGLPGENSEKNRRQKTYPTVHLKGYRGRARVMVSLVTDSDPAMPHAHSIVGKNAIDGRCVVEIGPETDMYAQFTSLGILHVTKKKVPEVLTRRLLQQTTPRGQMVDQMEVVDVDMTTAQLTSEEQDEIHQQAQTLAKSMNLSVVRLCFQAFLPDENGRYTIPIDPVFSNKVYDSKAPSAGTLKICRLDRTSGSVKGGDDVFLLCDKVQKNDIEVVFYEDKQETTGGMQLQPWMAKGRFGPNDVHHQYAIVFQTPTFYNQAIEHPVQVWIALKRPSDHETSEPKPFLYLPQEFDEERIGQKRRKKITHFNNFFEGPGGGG
Assay: protein-binding microarray (PBM); PBM: ~300 nM protein, 6 mM HEPES pH 7.8, 80 mM KCl, 0.5 mM EDTA, 0.5 mM EGTA, 6% glycerol, 35 ng/ul poly-dIdC, 1% milk, 1 h, room temperature; Ap Aiptasia and Nv Nematostella (sea anemones) / Co Capsaspora / Aq Amphimedon (sponge) / Dm Drosophila / Hu human; RHD is the Rel homology domain; high values mean tight binding
Settings: dsDNA, one strand shown

Consider the worked cases shown below.
CCGATTAACATCAAGTTCCCCCATGATGTTAATCGGGTCTTGATTCGCTTGACGCTGCTG    5.56 z-score
CCGATTAACATCAGGGGAAATTATGATGTTAATCGGGTCTTGATTCGCTTGACGCTGCTG    7.99 z-score
CCGATTAACATCAAAAATTCCCATGATGTTAATCGGGTCTTGATTCGCTTGACGCTGCTG    6.55 z-score

Enter reported binding signal observed with GST-Aq-NF-kB (Amphimedon queenslandica, UniProt A9Y5G7 2-389) for CCGATTAACATCAGGGAAAATACTGATGTTAATCGGGTCTTGATTCGCTTGACGCTGCTG
5.71 z-score

Enter reported binding signal observed with GST-Aq-NF-kB (Amphimedon queenslandica, UniProt A9Y5G7 2-389) for CCGATTAACATCAATTCCCACCCTGATGTTAATCGGGTCTTGATTCGCTTGACGCTGCTG
2.03 z-score
